Listed below: pIC50 values for each entry.
- experimental-system: PDE5 from human platelets (Homo sapiens, UniProt O76074)
- Construct: from tissue; host or cells: human platelets
- test: PDE5 inhibitory activity test (scintillation proximity assay)
- Assay type: biochemical
- conditions-used: PDE5 from human platelets
When answering, recall that pIC50 equals minus log10 of the concentration in mol/L, and write that number alone.

Solved cases (8 shown):
CCOc1ccc(S(=O)(=O)N(CC)CCN(CC)CCOC(C)=O)cc1-c1nc2c(CC)nn(CC)c2c(=O)[nH]1 [Example 19]: 8.37
CCCc1nn(C)c2c(=O)[nH]c(-c3cc(S(=O)(=O)N(CC)CCN(CC)CCOC(C)=O)ccc3OCC)nc12 [Example 17]: 8.07
CCCc1nn(C)c2c(=O)[nH]c(-c3cc(S(=O)(=O)N(CCOC(=O)c4cccnc4)CCOC(=O)c4cccnc4)ccc3OCC)nc12 [Example 5]: 8.97
CCCOc1ccc(S(=O)(=O)N(CC)CCN2CCOCC2)cc1-c1nc2c(CC)nn(C)c2c(=O)[nH]1 [Example 54]: 8.01
CCCc1nn(C)c2c(=O)[nH]c(-c3cc(S(=O)(=O)N(CCN4CCOCC4)Cc4ccccc4)ccc3OCC)nc12 [Example 25]: 9.47
CCCOc1ccc(S(=O)(=O)N(CCCO)CCCOC)cc1-c1nc2c(CCC)nn(C)c2c(=O)[nH]1 [Example 99]: 8.39
CCCOc1ccc(S(=O)(=O)N(C)CCN(C)CCO)cc1-c1nc2c(CCC)nn(C)c2c(=O)[nH]1 [Example 23]: 10.14
CCCc1nn(C)c2c(=O)[nH]c(-c3cc(S(=O)(=O)N(CCOC(C)=O)CCN(CC)CC)ccc3OCC)nc12 [Example 12]: 8.16

In the following, a different compound is considered.
Query pIC50 for CCCc1nn(C)c2c(=O)[nH]c(-c3cc(S(=O)(=O)N(CCOC(C)=O)CCOC(C)=O)ccc3OCC)nc12 [Example 4]
8.47

---

Quick reference: ICP/BP of the listed items.
- System: rat corpora cavernosa
- test: Pharmacodynamic test: intracavernous pressure on electric stimulation of the cavernous nerve
- Format: in vivo
- conditions-used: anesthetized male SD rats, 5 mg/kg orally, ratio of ICP to MBp
Answer field: number only, no words.

CCCOc1ccc(S(=O)(=O)N(CC)CCCOC(C)=O)cc1-c1nc2c(CCC)nn(C)c2c(=O)[nH]1 [Example 97]: 72.0
CCCOc1ccc(S(=O)(=O)N(C)CCOC(C)=O)cc1-c1nc2c(CCC)nn(C)c2c(=O)[nH]1 [Example 33]: 72.3
CCCOc1ccc(S(=O)(=O)N(CCCOC(C)=O)CCCOC(C)=O)cc1-c1nc2c(CCC)nn(C)c2c(=O)[nH]1 [Example 93]: 77.2
CCCOc1ccc(S(=O)(=O)N(CCCOC)CCCOC(C)=O)cc1-c1nc2c(CCC)nn(C)c2c(=O)[nH]1 [Example 118]: 77.9
CCCOc1ccc(S(=O)(=O)N(C)CCN(C)C)cc1-c1cc2c(CCC)nn(C)c2c(=O)[nH]1 [Example 75]: 74.2
CCCOc1ccc(S(=O)(=O)N(CCCO)CCCOC(C)=O)cc1-c1nc2c(CCC)nn(C)c2c(=O)[nH]1 [Example 92]: 86.4
CCCOc1ccc(S(=O)(=O)N(CCN2CCOCC2)Cc2cccnc2)cc1-c1nc2c(CCC)nn(C)c2c(=O)[nH]1 [Example 62]: 69.8
CCCOc1ccc(S(=O)(=O)N(CCN2CCCC2)Cc2cccnc2)cc1-c1nc2c(CCC)nn(C)c2c(=O)[nH]1 [Example 89]: 70.9

# return recorded ICP/BP for input CCCOc1ccc(S(=O)(=O)N(CC)CCN2CCOCC2)cc1-c1nc2c(CC)nn(C)c2c(=O)[nH]1 [Example 54]
86.3

Tell us which ICP/BP value is on record for CCCOc1ccc(S(=O)(=O)N(CCO)CCN2CCOCC2)cc1-c1cc2c(CCC)nn(C)c2c(=O)[nH]1 [Example 95]
57.2

Note down ICP/BP recorded for CCCOc1ccc(S(=O)(=O)N(CCOC(C)=O)CCN2CCOCC2)cc1-c1nc2c(CCC)nn(C)c2c(=O)[nH]1 [Example 96]
81.0

Please report ICP/BP for the following compound: CCCOc1ccc(S(=O)(=O)N(C)CCN2CCCCC2)cc1-c1nc2c(CCC)nn(C)c2c(=O)[nH]1 [Example 78]
71.6

Quick one: give measured ICP/BP for CCCOc1ccc(S(=O)(=O)N(CCOCC)CCN2CCOCC2)cc1-c1nc2c(CCC)nn(C)c2c(=O)[nH]1 [Example 111]
89.1

Look up and report measured ICP/BP for this entry: CCCOc1ccc(S(=O)(=O)N(CCCO)CCCOC)cc1-c1nc2c(CCC)nn(C)c2c(=O)[nH]1 [Example 99]
56.2

Quote ICP/BP reported for CCCc1nn(C)c2c(=O)[nH]c(-c3cc(S(=O)(=O)N4CCN(C)CC4)ccc3OCC)nc12 [sildenafil, Sildenafil, reference compound] please.
80.1

---

Examples of compounds with documented Number of death follow.
- Test system: male KM mouse
- test: Acute oral toxicity test
- Type: in vivo
- conditions-used: single oral dose of 3 g/kg, 10 or 11 mice per group
- Method: In this test male KM mouse weighting 18-22 g were used, and 10 or 11 mouse were assigned randomly to each group. […] The animals were fasted for 12 hours before the administration.
Keep the answer to the number alone.

Some entries whose results are on file:
CCCOc1ccc(S(=O)(=O)N(CCCOC)CCCOC(C)=O)cc1-c1nc2c(CCC)nn(C)c2c(=O)[nH]1: 0
CCCOc1ccc(S(=O)(=O)N(CCN2CCCC2)Cc2cccnc2)cc1-c1nc2c(CCC)nn(C)c2c(=O)[nH]1: 5
CCCOc1ccc(S(=O)(=O)N(CCOCC)CCN2CCOCC2)cc1-c1nc2c(CCC)nn(C)c2c(=O)[nH]1: 0

Now examine the next entry.
Specify reported Number of death for the compound shown: CCCOc1ccc(S(=O)(=O)N(CCCO)CCCOC)cc1-c1nc2c(CCC)nn(C)c2c(=O)[nH]1
1

---

- experimental-system: PDE6 from bovine retina (Bos taurus, UniProt P11541+P23439)
- Construct: the PDE6 was isolated form bovine retinas; from tissue; host or cells: bovine retina
- Sequence (P11541 2-856 limits assumed): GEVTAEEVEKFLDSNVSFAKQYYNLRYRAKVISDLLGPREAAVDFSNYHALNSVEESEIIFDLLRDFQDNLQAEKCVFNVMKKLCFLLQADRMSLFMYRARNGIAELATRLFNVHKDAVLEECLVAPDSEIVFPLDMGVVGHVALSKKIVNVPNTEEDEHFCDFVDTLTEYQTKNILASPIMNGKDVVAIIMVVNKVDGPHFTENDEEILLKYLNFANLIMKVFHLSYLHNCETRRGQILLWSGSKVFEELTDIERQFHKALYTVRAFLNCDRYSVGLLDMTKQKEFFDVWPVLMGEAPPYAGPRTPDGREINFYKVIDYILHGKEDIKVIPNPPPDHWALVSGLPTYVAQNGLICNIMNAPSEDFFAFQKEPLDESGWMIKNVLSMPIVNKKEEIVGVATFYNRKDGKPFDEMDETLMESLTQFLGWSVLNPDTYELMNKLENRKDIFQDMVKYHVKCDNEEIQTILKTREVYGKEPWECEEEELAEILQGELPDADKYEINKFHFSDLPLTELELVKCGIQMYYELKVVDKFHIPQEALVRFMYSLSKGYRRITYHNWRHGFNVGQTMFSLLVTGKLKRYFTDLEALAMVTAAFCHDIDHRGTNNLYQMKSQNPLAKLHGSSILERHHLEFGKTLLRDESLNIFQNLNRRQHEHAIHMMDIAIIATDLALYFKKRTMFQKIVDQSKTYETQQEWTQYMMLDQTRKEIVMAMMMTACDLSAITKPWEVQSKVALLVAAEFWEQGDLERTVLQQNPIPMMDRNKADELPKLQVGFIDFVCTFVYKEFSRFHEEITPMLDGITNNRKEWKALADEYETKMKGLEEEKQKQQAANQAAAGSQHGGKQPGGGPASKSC
- Sequence (P23439 2-850 limits assumed): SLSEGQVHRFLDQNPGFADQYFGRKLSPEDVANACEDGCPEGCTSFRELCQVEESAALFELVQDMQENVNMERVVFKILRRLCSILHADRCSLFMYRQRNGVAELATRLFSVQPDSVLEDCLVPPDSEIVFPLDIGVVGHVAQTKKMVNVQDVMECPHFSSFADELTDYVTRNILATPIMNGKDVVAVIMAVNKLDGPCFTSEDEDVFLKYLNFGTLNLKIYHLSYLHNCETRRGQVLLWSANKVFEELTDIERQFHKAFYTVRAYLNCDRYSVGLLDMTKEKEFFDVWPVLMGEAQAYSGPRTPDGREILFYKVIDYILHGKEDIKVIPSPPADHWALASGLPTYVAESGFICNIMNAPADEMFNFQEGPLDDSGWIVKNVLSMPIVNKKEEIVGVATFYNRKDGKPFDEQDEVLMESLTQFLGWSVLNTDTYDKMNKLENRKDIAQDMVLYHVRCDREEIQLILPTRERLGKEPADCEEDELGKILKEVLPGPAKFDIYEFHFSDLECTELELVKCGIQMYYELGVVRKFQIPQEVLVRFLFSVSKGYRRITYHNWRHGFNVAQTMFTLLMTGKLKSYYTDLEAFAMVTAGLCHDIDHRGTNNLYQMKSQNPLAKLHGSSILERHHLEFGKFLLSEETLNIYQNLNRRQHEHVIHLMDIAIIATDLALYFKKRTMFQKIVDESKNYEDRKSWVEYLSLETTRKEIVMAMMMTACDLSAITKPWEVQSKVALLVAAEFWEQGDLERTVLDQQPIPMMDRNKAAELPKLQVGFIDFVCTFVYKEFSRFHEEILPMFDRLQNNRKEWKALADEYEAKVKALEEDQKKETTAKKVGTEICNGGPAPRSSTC
- test: PDE6 inhibitory activity test (scintillation proximity assay)
- Type: biochemical
- conditions-used: selectivity of PDE5 versus PDE6
metric-name: PDE6 IC50/PDE5 IC50
The answer should be written as a number, with no unit following it.

CCCc1nn(C)c2c(=O)[nH]c(-c3cc(S(=O)(=O)N(CCN4CCOCC4)Cc4ccccc4)ccc3OCC)nc12: 279
CCCc1nn(C)c2c(=O)[nH]c(-c3cc(S(=O)(=O)N(CCOC(C)=O)CCOC(C)=O)ccc3OCC)nc12: 82.1

Tell me its PDE6 IC50/PDE5 IC50 given CCCOc1ccc(S(=O)(=O)N(CCO)CCO)cc1-c1nc2c(CCC)nn(C)c2c(=O)[nH]1 as the entry.
425

Return reported PDE6 IC50/PDE5 IC50. Input molecule: CCCOc1ccc(S(=O)(=O)N(CC)CCN2CCOCC2)cc1-c1nc2c(CC)nn(C)c2c(=O)[nH]1
23.9

---

- Test system: male KM mouse
- test: Acute oral toxicity test
- Type: in vivo
- conditions-used: single oral dose of 3 g/kg, 10 or 11 mice per group
Quick list: Number of death per entry.
A bare number is all that is needed in reply.

CCCOc1ccc(S(=O)(=O)N(CCCOC(C)=O)CCCOC(C)=O)cc1-c1nc2c(CCC)nn(C)c2c(=O)[nH]1 [Example 93]: 0

Specify Number of death for CCCOc1ccc(S(=O)(=O)N(CCN2CCOCC2)Cc2cccnc2)cc1-c1nc2c(CCC)nn(C)c2c(=O)[nH]1 [Example 62] , system male KM mouse.
6

State measured Number of death of the compound CCCOc1ccc(S(=O)(=O)N(CC)CCCOC(C)=O)cc1-c1nc2c(CCC)nn(C)c2c(=O)[nH]1 [Example 97] with male KM mouse.
5

---

The entries below are paired with their reported IC50.
- experimental-system: PDE5 from human platelets (Homo sapiens)
- Construct: from tissue; host or cells: human platelets
- test: PDE5 inhibitory activity test (scintillation proximity assay)
- Format: biochemical
- conditions-used: PDE5 in the PDE6 selectivity table
- Experimental: The PDE5 and PDE3 were isolated form human platelets, while the PDE6 was isolated form bovine retinas. […] Shook for 20 minutes and settled for 30 minutes in the dark, then counted on a BECKMAN LS6500 MULTI-PURPOSE SCINTILLATION COUNTER. The IC50 value for the compounds according the present invention was calculated according the counts. […]

# example entries with known answers
CCCOc1ccc(S(=O)(=O)N(CCCO)CCCOC(C)=O)cc1-c1nc2c(CCC)nn(C)c2c(=O)[nH]1: 3.85 nM
CCCOc1ccc(S(=O)(=O)N(CC)CCN2CCOCC2)cc1-c1nc2c(CC)nn(C)c2c(=O)[nH]1: 9.81 nM

Tell us which IC50 value is on record for CCCOc1ccc(S(=O)(=O)N(CCOC(C)=O)CCN2CCOCC2)cc1-c1nc2c(CCC)nn(C)c2c(=O)[nH]1
4.24 nM

# return recorded IC50 for entry CCCOc1ccc(S(=O)(=O)N(CCN2CCCC2)Cc2cccnc2)cc1-c1nc2c(CCC)nn(C)c2c(=O)[nH]1
7.85 nM

Specify reported IC50 for the compound shown: CCCOc1ccc(S(=O)(=O)N(CCCOC)CCCOC(C)=O)cc1-c1nc2c(CCC)nn(C)c2c(=O)[nH]1
5.41 nM
